test system: HCT-116; assay: Antiproliferative activity against human HCT-116 cells assessed as inhibition of cell growth measured after 48 hrs by CCK-8 assay; assay type: functional, cell-based; conditions: HCT-116, 48 h
Please provide measured IC50 for the entries that follow.

Answered cases to consult:
| INPUT_SMILES | VAL |
| --- | --- |
| COc1cc([C@@H]2Oc3cc(/C=C/c4cc(O)cc(O)c4)ccc3O[C@H]2CO[C@@H]2O[C@H](CO)[C@@H](O)[C@H](O)[C@H]2O)cc(OC)c1O | > 200 µM |
| OC[C@@H]1Oc2ccc(/C=C/c3cc(O)cc(O)c3)cc2O[C@H]1c1cc(F)c(O)c(F)c1 | > 50 µM |

Provide IC50, recorded with HCT-116, of COc1cc([C@@H]2Oc3ccccc3O[C@H]2CO)cc(OC)c1O
> 100 µM

---

system: HT-29; assay: Antiproliferative activity against human HT-29 cells assessed as inhibition of cell growth measured after 48 hrs by CCK-8 assay; type: functional, cell-based; conditions: HT-29, 48 h
PROPERTY_NAME: IC50

| INPUT_SMILES | IC50 |
| --- | --- |
| COc1cc([C@@H]2Oc3cc(C=O)ccc3O[C@H]2CO)cc(OC)c1O | > 100 µM |
| COc1cc([C@@H]2Oc3cc(/C=C/c4cc(O)cc(O)c4)ccc3O[C@H]2CO[C@@H]2O[C@H](CO)[C@@H](O)[C@H](O)[C@H]2O)cc(OC)c1O | > 200 µM |
| COc1cc([C@@H]2Oc3ccccc3O[C@H]2CO)cc(OC)c1O | > 100 µM |

Note: attention shifts to another entry.
Identify measured IC50 associated with COc1cc([C@@H]2Oc3cc(/C=C/c4cc(OC(C)=O)cc(OC(C)=O)c4)ccc3O[C@H]2CO)cc(OC)c1OC(C)=O
7.92 µM

---

tested on: HCT-116; experiment: Antiproliferative activity against human HCT-116 cells assessed as inhibition of cell growth measured after 48 hrs by CCK-8 assay; type: functional, cell-based; settings: HCT-116, 48 h
PROPERTY_NAME: pIC50
Numbers only, as −log10 of the molar value.

Answered cases to consult:
| INPUT_SMILES | VAL |
| --- | --- |
| COc1cc([C@@H]2Oc3cc(/C=C/c4cc(O)cc(O)c4)ccc3O[C@H]2CNC(=O)S(=O)(=O)c2ccc(C)cc2)cc(OC)c1O | 5.33 |
| OC[C@@H]1Oc2ccc(/C=C/c3cc(O)cc(O)c3)cc2O[C@H]1c1cc(Br)c(O)c(Br)c1 | 4.40 |
| COc1cc([C@@H]2Oc3cc(-c4ccccc4)ccc3O[C@H]2CO)cc(OC)c1O | 4.78 |
| COc1cc([C@@H]2Oc3cc(/C=C/c4cc(O)cc(O)c4)ccc3O[C@H]2CNC(=O)S(C)(=O)=O)cc(OC)c1O | 4.53 |
| COc1cc([C@@H]2Oc3cc(/C=C/c4ccc(C#N)cc4)ccc3O[C@H]2CO)cc(OC)c1O | 5.69 |

Hi, could you look up pIC50 for each item in my list?
1. COc1cc([C@@H]2Oc3cc(/C=C/c4cc(OC(C)=O)cc(OC(C)=O)c4)ccc3O[C@H]2COC(C)=O)cc(OC)c1OC(C)=O
2. COc1cc([C@@H]2Oc3cc(/C=C/c4ccc([N+](=O)[O-])cc4)ccc3O[C@H]2CO)cc(OC)c1O
3. COc1cc([C@@H]2Oc3cc(/C=C/c4ccccc4C#N)ccc3O[C@H]2CO)cc(OC)c1O
4. COc1cc([C@@H]2Oc3cc(/C=C/c4cc(O)cc(O)c4)ccc3O[C@H]2CNC(=O)c2ccc(F)c(F)c2)cc(OC)c1O

1. 4.70
2. 5.15
3. 4.91
4. 4.85

Hi, could you look up pIC50 for each item in my list?
1. COc1cc([C@@H]2Oc3cc(/C=C/c4cc(O)cc(O)c4)ccc3O[C@H]2CO)cc(OC)c1O
2. COc1cc([C@@H]2Oc3cc(/C=C/c4ccccc4)ccc3O[C@H]2CO)cc(OC)c1O
3. COc1cc([C@@H]2Oc3cc(/C=C/c4cccc(C#N)c4)ccc3O[C@H]2CO)cc(OC)c1O
4. COc1cc([C@@H]2Oc3cc(/C=C/c4ccc(C(F)(F)F)cc4)ccc3O[C@H]2CO)cc(OC)c1O
5. CCCCCCCCCCCCC(=O)NC[C@@H]1Oc2ccc(/C=C/c3cc(O)cc(O)c3)cc2O[C@H]1c1cc(OC)c(O)c(OC)c1

1. 4.70
2. 4.91
3. 4.94
4. 4.57
5. 4.84
